Target: T1, human CS1 ECD-huIgG1 (human, UniProt Q9NQ25 23-226)
T1 construct: Its preparation is not described; also called HuCS1Fc; HuCS1-Fc; not shown: constant region of human IgG1 (huIgG1 Fc)
T1 sequence (Q9NQ25 23-226): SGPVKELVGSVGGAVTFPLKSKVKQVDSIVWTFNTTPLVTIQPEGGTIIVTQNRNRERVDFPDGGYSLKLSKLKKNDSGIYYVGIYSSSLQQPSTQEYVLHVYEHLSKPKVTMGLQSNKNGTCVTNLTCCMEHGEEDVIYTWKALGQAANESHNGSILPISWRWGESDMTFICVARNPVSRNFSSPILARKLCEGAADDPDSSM
Assay: hybridoma screen of Example 1 (ELISA on ECD-huIgG1 fusions, flow cytometry on OPM-2 cells); member named in Table 5
Protocol: Specificity of antibodies secreted by hybridomas was determined by binding to human CS1 ECD-huIgG1 and CmCS1 ECD-huIgG1, and not to negative control CLL1 ECD-huIgG1 by ELISA. […] Hybridoma supernatants were allowed to bind to the proteins and detected with an HRP conjugated donkey anti mouse IgG (H+L) antibody. […] Cells were washed again and analyzed on a Becton Dickinson FACSCalibur for the presence of cell surface bound antibodies.
Measurement name: binding result

Binder	Reported measurement
CS1.AD159.31D2 (antibody, V domains shown, Murine hybridoma antibody; also called Mu31D2) VH: EVKLVESEGGLVQPGSSMKLSCTASGFTFSDYYMAWVRQVPEKGLEWVADINYDGGSTYYLDSLKSRFIISRDNAKNILCLQMSSLKSEDTATYYCARDRGYYFDYWGQGTTLTVSS VL: DVVMTQTPLSLPVSLGDQASISCRSSQSLVHSNGNTYLHWYLQKPGQSPKLLIYKVSNRFSGVPDRFSGSGSGTDFTLKISRVEAEDLGVYFCSQSTHVPPFTFGGGTKLEIK	binds
